Biological target: T1, CXCL11 (Homo sapiens, UniProt O14625)
T1 chain: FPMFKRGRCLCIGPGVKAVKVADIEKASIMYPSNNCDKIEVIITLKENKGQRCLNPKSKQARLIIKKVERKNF
Assay: homologous competition binding with 125I-CXCL11 on L1.2 transfectants
MEASURED_ENDPOINT: pKd
Convention used: pKd is expressed as -log10 of the molar concentration.

The cases that follow already have their pKd on record.
[[record]]
binder = "CXCR3 (protein) MVLEVSDHQVLNDAEVAALLENFSSSYDYGENESDSCCTSPPCPQDFSLNFDRAFLPALYSLLFLLGLLGNGAVAAVLLSRRTALSSTDTFLLHLAVADTLLVLTLPLWAVDAAVQWVFGSGLCKVAGALFNINFYAGALLLACISFDRYLNIVHATQLYRRGPPARVTLTCLAVWGLCLLFALPDFIFLSAHHDERLNATHCQANFPQVGRTALRVLQLVAGFLLPLLVMAYCYAHILAVLLVSRGQRRLRAMRLVVVVVVAFALCWTPYHLVVLVDILMDLGALARNCGRESRVDVAKSVTSGLGYMHCCLNPLLYAFVGVKFRERMWMLLLRLGCPNQRGLQRQPSSSRRDSSWSETSEASYSGL"
measurement = 7.98

[[record]]
binder = "CXCR3 (protein) MVLEVSDHQVLNDAEVAALLENFSSSYDYGENESDSCCTSPPCPQDFSLNFDRAFLPALYSLLFLLGLLGNGAVAAVLLSRRTALSSTDTFLLHLAVADTLLVLTLPLWAVDAAVQWVFGSGLCKVAGALFNINFYAGALLLACISFDRYLNIVHATQLYRRGPPARVTLTCLAVWGLCLLFALPDFIFLSAHHDERLNATHCQYNFPQVGRTALRVLQLVAGFLLPLLVMAYCYAHILAVLLVSRGQRRLRAMRLVVVVVVAFALCWTPYHLVALVDILMDLGALARNCGRESRVDVAKSVTSGLGYMHCCLNPLLYAFVGVKFRERMWMLLLRLGCPNQRGLQRQPSSSRRDSSWSETSEASYSGL"
measurement = 8.13

[[record]]
binder = "CXCR3 (protein) MVLEVSDHQVLNDAEVAALLENFSSSYDYGENESDSCCTSPPCPQDFSLNFDRAFLPALYSLLFLLGLLGNGAVAAVLLSRRTALSSTDTFLLHLAVADTLLVLTLPLWAVDAAVQWVFGSGLCKVAGALFNINFYAGALLLACISFDRYLNIVHATQLYRRGPPARVTLTCLAVWGLCLLFALPDFIFLSAHHDERLNATHCQYNFPQVGRTALRVLQLVAGFLLPLLVMAYCYAHILAVLLVSRGQRRLRAMRLVVVVVVAFALCWTPYHLVVLVDILMDLGALARNCGRESRVDVAKSVTSGLGYMHCCLNPLLYAFVGVKFRERMWMLLLRLGCPNQRGLQRQPSSSRRDSSWSETSEASYSGL"
measurement = 8.11

[[record]]
binder = "CXCR3 (protein) MVLEVSDHQVLNDAEVAALLENFSSSYDYGENESDSCCTSPPCPQDFSLNFDRAFLPALYSLLFLLGLLGNGAVAAVLLSRRTALSSTDTFLLHLAVADTLLVLTLPLWAVDAAVQWVFGSGLCKVAGALANINFYAGALLLACISFDRYLNIVHATQLYRRGPPARVTLTCLAVWGLCLLFALPDFIFLSAHHDERLNATHCQYNFPQVGRTALRVLQLVAGFLLPLLVMAYCYAHILAVLLVSRGQRRLRAMRLVVVVVVAFALCWTPYHLVVLVDILMDLGALARNCGRESRVDVAKSVTSGLGYMHCCLNPLLYAFVGVKFRERMWMLLLRLGCPNQRGLQRQPSSSRRDSSWSETSEASYSGL"
measurement = 8.96


If you can, please state the reported pKd value of CXCR3 (protein) MVLEVSDHQVLNDAEVAALLENFSSSYDYGENESDSCCTSPPCPQDFSLNFDRAFLPALYSLLFLLGLLGNGAVAAVLLSRRTALSSTDTFLLHLAVADTLLVLTLPLWAVDAAVQWVFGSGLCKVAGALFNINFYAGALLLACISFDRYLNIVHATQLYRRGPPARVTLTCLAVWGLCLLFALPDFIFLSAHHDERLNATACQYNFPQVGRTALRVLQLVAGFLLPLLVMAYCYAHILAVLLVSRGQRRLRAMRLVVVVVVAFALCWTPYHLVVLVDILMDLGALARNCGRESRVDVAKSVTSGLGYMHCCLNPLLYAFVGVKFRERMWMLLLRLGCPNQRGLQRQPSSSRRDSSWSETSEASYSGL .
8.54
